- target_entity: T1, human IL-1RAcP on 293T/17-FR cells (human, UniProt Q9NPH3 21-570)
- T1 sequence (looked up): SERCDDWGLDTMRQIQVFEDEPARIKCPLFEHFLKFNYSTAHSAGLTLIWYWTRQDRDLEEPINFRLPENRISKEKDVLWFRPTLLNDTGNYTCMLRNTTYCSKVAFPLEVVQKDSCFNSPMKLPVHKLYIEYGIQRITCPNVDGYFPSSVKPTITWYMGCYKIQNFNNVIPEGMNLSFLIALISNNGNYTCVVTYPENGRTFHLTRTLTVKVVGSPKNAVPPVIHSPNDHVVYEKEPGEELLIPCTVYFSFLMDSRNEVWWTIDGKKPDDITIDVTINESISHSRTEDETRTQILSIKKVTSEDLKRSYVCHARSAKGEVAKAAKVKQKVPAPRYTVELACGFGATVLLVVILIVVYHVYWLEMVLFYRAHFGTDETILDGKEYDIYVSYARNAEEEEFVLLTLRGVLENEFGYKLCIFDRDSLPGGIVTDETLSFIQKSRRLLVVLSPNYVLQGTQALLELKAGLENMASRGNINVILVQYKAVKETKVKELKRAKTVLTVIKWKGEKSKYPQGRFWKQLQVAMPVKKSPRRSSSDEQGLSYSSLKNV
- procedure_details: cell-based or functional assay
Rule: satisfied for functional reporter gene assay (% inhibition), 5 µg/mL mAb not less than 90%, not satisfied for anything less.

Observe how each entry below is paired with its result.
P013.S.01.B.G02 (antibody, V domains shown, rabbit monoclonal antibody; also called P013.A.00085.B11) VH: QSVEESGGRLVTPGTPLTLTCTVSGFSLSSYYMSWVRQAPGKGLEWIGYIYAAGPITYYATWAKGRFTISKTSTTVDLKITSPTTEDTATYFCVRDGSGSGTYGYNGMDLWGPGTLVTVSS VL: AYDMTQTPASVEAAVGGTVNIKCQASQSISNWLAWYQQKPGQRPKLLIYRASTLASGVSSRFKGSGSGTQFTLTISGVESADAATYYCQQGASTTDVDNVFGGGTEVVVK : not satisfied
P013.S.01.B.A06 (antibody, V domains shown, rabbit monoclonal antibody; also called P013.A.00133.B12) VH: QSLEESGGRLVTPGTPLTLSCKVSGFSLSSYDMSWVRQTPGKGLEWIGTIYIGGTTAYASWPKGRFTISKTSTTVDLKITSPTKEDTATYFCARLQGANYYNSLALWGQGTLVTVSS VL: DVVMTQTPASVSEPVGGTVTIKCQASQSIYSFLSWYQQKPGQPPKLLIYAASDLESGVPSRFSGSGYGTEFTLTISDLESADAATYYCQCNYIIDYGAFGGGTEVVVK : satisfied
P013.S.01.B.A03 (antibody, V domains shown, rabbit monoclonal antibody; also called P013.A.00088.A07) VH: QEQLEESGGDLVQPEGSLTVTCTASGFSFSFGYYMCWVRQAPGKGLEWIACIYGDSSDTLYANWAKGRFTVSKTSSTTVTLQMTSLTAADTATYFCARYPGGSYYNLWGPGTRVTVSS VL: ALVMTQTPASVEAAVGGTVTIKCQASQTISINLAWYQQKPGQRPKLLIYYASTLASGVPSRFSGSGSGTEFTLTISGVQSDDAATYYCQQGYTEDNIDNTFGGGTEVVVK : satisfied
P013.S.02.B.B01 (antibody, V domains shown, rabbit monoclonal antibody; also called P013.A.00088.A11) VH: QSLEESGGRLVTPGTPLTLTCTVSGFSLSGYAMSWVRQAPGKGLEWIGIIYAGSGGTYYASWVKGRFTISKTSTTVDLKITSLTTEDTATYFCARAVPDDSAGKKLWGQGTLVTVSS VL: DIVMTQTPASVEAAVGGTITINCQASENIYSSLAWYQQKPGQPPKLLIYDASTLASGVSSRFKGSGSGTQFTLTISGVQSDDAATYYCQSYYCSVSSSCGYGFGGGTEVVVK : satisfied
P013.S.01.B.B05 (antibody, V domains shown, rabbit monoclonal antibody; also called P013.A.00030.D07) VH: QSLEESGGRLVTPGTPLTLTCTASGFSLSSYYMSWVRQAPGKGLEWVGIISGSASTYYATWAKGRFTISKTSTTVDLKIASPTTEDTATYFCARTHYAAVAGYGYASRLDLWGQGTLVTVSS VL: AIEMTQSPPSLSASVGETVRIRCLASEDIYSGISWYQQKPGKPPTLLIYAASNLESGVPPRFSGSGSGTDYTLTIGGVQAEDAATYYCLGGYSYSNTGPTFGAGTKVEIK : satisfied

Here is another binder to look at.
Hi, just wondering whether P013.S.02.B.H04 (antibody, V domains shown, rabbit monoclonal antibody; also called P013.A.00029.F11) VH: QSVEESGGRLVKPDETLTLTCTVSGIDLSSYAMGWVRQAPGKGLEYIGIISSSGRTYYANWAKGRFTISKASSTTVDLKITSPTTEDTATYFCARLITVDYYIYDYFNLWGQGTLVTVSS VL: AYDMTQTPASVEAAVGGTVTIKCQASQSISSYLSWYQQKPGQPPKLLIYGASTLASGVPSRFKGSGSGTEYTLTISGVESDDAATYYCQQGYSYNNVDNTFGGGTEVVVK shows functional reporter gene assay (% inhibition), 5 µg/mL mAb of 90% or higher.
not satisfied
